# measurementTarget: P2Y purinoceptor 2 (Homo sapiens, UniProt P41231)
# Sequence (P41231 whole entry): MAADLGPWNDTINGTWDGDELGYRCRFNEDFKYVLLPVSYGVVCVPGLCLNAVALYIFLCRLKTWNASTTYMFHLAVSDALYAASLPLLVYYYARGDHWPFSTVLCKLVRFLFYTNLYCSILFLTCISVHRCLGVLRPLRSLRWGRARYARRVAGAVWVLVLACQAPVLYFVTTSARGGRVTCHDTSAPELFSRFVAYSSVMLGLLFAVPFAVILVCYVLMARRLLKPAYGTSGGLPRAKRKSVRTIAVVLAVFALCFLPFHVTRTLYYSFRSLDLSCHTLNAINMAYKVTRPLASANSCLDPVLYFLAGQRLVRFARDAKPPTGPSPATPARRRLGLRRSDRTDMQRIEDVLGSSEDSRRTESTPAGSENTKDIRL
# assayDetails: Agonist activity at P2Y2 receptor in NG108-15 cells (unknown origin)
# Assay type: functional, cell-based
quantityKind: pEC50
pEC50 field: float, defined as -log10 of concentration (mol/L).

O=c1ccn([C@@H]2O[C@H](COP(=O)(O)OP(=O)(O)OP(=O)(O)O)[C@@H](O)[C@H]2O)c(=O)[nH]1 [URIDINE TRIPHOSPHATE]	5.90

Consider the additional compound presented here.
Look at this compound and give its reported pEC50. Nc1ncnc2c1ncn2[C@@H]1O[C@H](COP(=O)(O)OP(=O)(O)OP(=O)(O)O)[C@@H](O)[C@H]1O [ADENOSINE TRIPHOSPHATE] 6.74

###

# measurementTarget: P2Y purinoceptor 2 (Homo sapiens)
# assayDetails: Agonist activity at human P2Y2 receptor expressed in 1321N1 cells assessed as [3H]-inositol phosphate accumulation measured after 90 mins by anion exchange chromatographic method
# Assay type: functional, cell-based
Measured log10 of EC50 accompanies every entry in the list below.
Values reflect log10 of reported EC50 (µM).

CN(C)c1ccn([C@@H]2O[C@H](COP(=O)(O)OP(=O)(O)OP(=O)(O)O)[C@@H](O)[C@H]2O)c(=O)n1	1.47
O=c1nc(N2CCOCC2)ccn1[C@@H]1O[C@H](COP(=O)(O)OP(=O)(O)OP(=O)(O)O)[C@@H](O)[C@H]1O	1.01
O=c1ccn([C@@H]2O[C@H](COP(=O)(O)OP(=O)(O)OP(=O)(O)O)[C@@H](O)[C@H]2O)c(=O)[nH]1 [URIDINE TRIPHOSPHATE]	-0.92
CCCCCCSc1ccn([C@@H]2O[C@H](COP(=O)(O)OP(=O)(O)OP(=O)(O)O)[C@@H](O)[C@H]2O)c(=O)n1	-0.08
O=c1[nH]c(=S)ccn1[C@@H]1O[C@H](COP(=O)(O)OP(=O)(O)OP(=O)(O)O)[C@@H](O)[C@H]1O	-0.15
CSc1ccn([C@@H]2O[C@H](COP(=O)(O)OP(=O)(O)OP(=O)(O)O)[C@@H](O)[C@H]2O)c(=O)n1	0.49

Consider the additional molecule presented here.
Look at this molecule and give its reported log10 of EC50. CCCCCCNc1ccn([C@@H]2O[C@H](COP(=O)(O)OP(=O)(O)OP(=O)(O)O)[C@@H](O)[C@H]2O)c(=O)n1 1.42

###

# measurementTarget: P2Y purinoceptor 2 (Homo sapiens, UniProt P41231)
# assayDetails: Agonist activity at human P2Y2 receptor expressed in 1321N1 cells assessed as [3H]-inositol phosphate accumulation measured after 90 mins by anion exchange chromatographic method
# Assay type: functional, cell-based
Measured pEC50 accompanies every entry in the list below.
pEC50 field: float, defined as -log10 of concentration (mol/L).

Known pEC50 results, listed for orientation:
C#CCNC(=O)COc1ccc(CCCO/N=c2\ccn([C@@H]3O[C@H](COP(=O)(O)OP(=O)(O)OP(=O)(O)O)[C@@H](O)[C@H]3O)c(=O)[nH]2)cc1	6.96
CCCCCCOc1ccn([C@@H]2O[C@H](COP(=O)(O)OP(=O)(O)OP(=O)(O)O)[C@@H](O)[C@H]2O)c(=O)n1	3.31
Nc1ccn([C@@H]2O[C@H](COP(=O)(O)OP(=O)(O)OP(=O)(O)O)[C@@H](O)[C@H]2O)c(=O)n1 [CYSTETINE TRIPHOSPHATE]	4.42

Look at this compound and give its reported pEC50. COc1ccn([C@@H]2O[C@H](COP(=O)(O)OP(=O)(O)OP(=O)(O)O)[C@@H](O)[C@H]2O)c(=O)n1 4.81

###

# measurementTarget: P2Y purinoceptor 2 (Homo sapiens, UniProt P41231)
# assayDetails: Agonist activity at P2Y2 receptor (unknown origin)
# Format: functional
quantityKind: EC50

Look at this compound and give its reported EC50. O=c1[nH]c(=O)n([C@@H]2O[C@H](COP(=O)(O)OP(=O)(O)OP(=O)(O)O)[C@@H](O)[C@H]2O)cc1Br 220 nM

###

# measurementTarget: UniProtKB P41231
# assayDetails: Agonist activity at P2Y2 receptor in human CF/T43 cells
# Assay type: functional, cell-based
quantityKind: pEC50
pEC50 field: float, defined as -log10 of concentration (mol/L).

Look at this compound and give its reported pEC50. Nc1ncnc2c1ncn2[C@@H]1O[C@H](COP(=O)(O)OP(=O)(O)OP(=O)(O)O)[C@@H](O)[C@H]1O [ADENOSINE TRIPHOSPHATE] 6.70

###

# measurementTarget: P2Y purinoceptor 2 (Homo sapiens)
# assayDetails: Agonist activity at P2Y2 receptor in BEA cells (unknown origin)
# Format: functional, cell-based
quantityKind: EC50 (nM)
Write the answer as a number in nM, unit excluded.

Nc1ncnc2c1ncn2[C@@H]1O[C@H](COP(=O)(O)OP(=O)(O)OP(=O)(O)O)[C@@H](O)[C@H]1O [ADENOSINE TRIPHOSPHATE]	200

Look at this molecule and give its reported EC50. O=c1ccn([C@@H]2O[C@H](COP(=O)(O)OP(=O)(O)OP(=O)(O)O)[C@@H](O)[C@H]2O)c(=O)[nH]1 [URIDINE TRIPHOSPHATE] 160
